Hello, the source for this data is the supplement of paper PMC9170038, in case you need it.

System: K4 kissing-loop RNA reporter;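 also: bound reporter read as fluorescence of individual clusters on recovered sequencing chips by microscopy, with normalized cluster intensities fitted with a binding model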
Test: apparent KD of K4 kissing-loop reporter; higher = weaker reporter binding
Conditions: Eterna round: R107; input ligand: theophylline 20 uM
endpoint_label: apparent KD of K4 kissing-loop reporter

>>> reported("GAGCGGUGGAGGUUACCGCUAUUCUGAGAAGGAGCGCAGAAGACUGCAGGUAGGUCGCUUAGAGCUUGCAGUGAUGUUGCAAGUU [KL-SSArg-A13]")
"0.16 µM"
>>> reported("UUACGAGUGAUGUUCGAAUAAAUCCAUUCAGAGGAUAUAGUAUUAACUAGAAGGCUGAAACCAACUUCGAGUGAUGUUCGAGGAU [Same State FMN A GF 3]")
"0.0884 µM"
>>> reported("GUAGACAGACUGCAAGCCUAGUCUACAGACUAGGAUAUCAGGAAACUGAGAAGGAGUCUACUUGCAGUGAUGUUGCAAGAAUAAU [[F]''-[K]'-[F]'-[F1]-[F2]-[K1]-[K2]_Design4]")
"0.111 µM"
>>> reported("UGUGUUUACCUGACUCAGUGAUGUUGAGAAGGAGCGUGCGAAAGCACAGGUAGGUCGCUCAAUCCUUAAUCAGGUGAGCACUAAA [#SwitchBubble 13 #K4Early]")
"0.447 µM"
>>> reported("CCUAUCUCAUACGAUACCAGUCCGAGUGAUGUUCGAACAGGUUUUAGUUUGCCAUAUAAUGACCCUUGGCAGCGUAUGGGAUAGG [Ex Theophylline B K4 13]")
"0.13 µM"
>>> reported("AUGUACACGAUAGUGUACUCCUAGUGAUGUUAGGAUAUGCAGAUAUGCAGAAGGAACAAGUCAUCUGACAAUAGUCGGAUGACAA [FmnAX 9 #OpenEnded #K4Early]")
"0.125 µM"
>>> reported("UUCAGGUGUUCGGCCGCCACUCCAGUGAUGUUGGAGUGGCUUCACAAGGGCCAGGACAAUGUAGGGAGGACCGGGAAUAUCGCAG [Atvebeance]")
"0.107 µM"
>>> reported("CCGGGCGGCUGAAGGAGCGGGCGGGCCCGAGUGAUGUUCGGGUGGACCGUGAGGUCCGGUGCCCAGGUAGGUCGCGGUUCCGCCC [#2 Same State - Arginine B Attempt #8 (HarryS)]")
"0.296 µM"
>>> reported("CGAGUGAUGUUCGUUUUAAAAUUUUUUUGACAGGAUAUGCGGAAACGCAGAAGGGUCACCUUUGAGUUAAAAGAAAUUAAAUUUU [Ex FMN 16]")
"0.224 µM"
>>> reported("UCCUAGGCUCGAAAGAGCCUAGGAUUAACUCAGGAUAUCCGGAAACGGAGAAGGGAGUAACUAGUGAUGUUAGGGAUUCCCUAUU")
"0.0879 µM"
>>> reported("UGACUGGAUUGAAGGAGCGCUAAACUCCUAGUGAUGUUAGGGAAACAAGACAAAGUCUUGAGGCAGGUAGGUCGCAAUCUAGUCU [FiskerMod 4 - Jieux - Same State - Arginine B]")
"0.234 µM"

----------
Tested on: MS2 coat protein
Test: apparent KD of MS2 coat protein; designed switch direction (-1 OFF switch, 1 ON switch): -1; higher = weaker reporter binding
Settings: input ligand: microRNA oligo, concentration not stated
endpoint_label: apparent KD of MS2 coat protein (nM)

>>> reported("CCCUCAUGACGCACAUGAGGAUCACCCAUGUAUAAACCGUCAGAGGAUAUCCGCCGGUCACCGAAGGAGAAGGCUGACCUAAAG [Quinlaan] (Eterna round: R96, puzzle: Exclusion NG 3)")
11
>>> reported("GCACGGAGUGUAGGAUAUUAGUGCGAUUAGCACUGAGAAGGACAUGAGGAUCACCCAUGUUCCUCGAUAAAAUACCUUCCGUGC [Eli exng1 - 041] (Eterna round: R96, puzzle: Exclusion NG 1)")
7.59
>>> reported("UUCGUGCAGCUUUGCUGUACGAGUACAUGAGGAUCACCCAUGUAGGAUAUGGUACGCUUUGCGUGCUAGAAGGAUAUGUGUAGC [salish99_ExNG3_r04_504] (Eterna round: R96, puzzle: Exclusion NG 3)")
25.7
>>> reported("GUACUGAGGCUUUGCUUUAAUCGUACAUGAGGAUCACCCAUGUAGGAUAUGGUAGGCUUUGCUUACCAGAAGGACAGAGUGAUC [JL EXNG3 1.23] (Eterna round: R96, puzzle: Exclusion NG 3)")
121
>>> reported("UAUAUAUAGUAAGGAUAUGUAUAUAUUUUAGAAACAGAAGGUACUGACAUGAGGAUCACCCAUGUUUUAGUGUGGGCAUGUAGA [JMF's solution 67] (Eterna round: R96, puzzle: Exclusion NG 1)")
52.7

----------
System: MS2 coat protein
Experiment: apparent KD of MS2 coat protein; higher = weaker reporter binding
Settings: Eterna round: R107; input ligand: arginine 13.2 mM
# binarize apparent KD of MS2 coat protein: threshold 20 nM inclusive, high side 1 (yes), low side 0 (no)

>>> class_name("AUAAUGGGUAUCGGAUUAUCAUGGAAUGAUACCAGAUACUUAGAUAUCCCUUGGCAGCAUGAGGACAUGAGGAUCACCCAUGUAU [#03 Exclusion-TheophyllineA]")
"1 (yes)"
>>> class_name("CAGCACAUGAGGAUCACCCAUGUGAGGGAUACCAGCUCAGGCGUGGGCCCUUGGCAGCUCUGUGGCUGACGAAAGUCAGCCUCUG [#18 SameState-TheophyllineA]")
"0 (no)"
>>> class_name("ACAUGAGGAUCACCCAUGUCAGGGCACGAUACCAGCUGAUCCGGUGGCCCUUGGCAGCGUGACGUGUGGUCAUGAGGAUCACCCG [wsmullin]")
"1 (yes)"
>>> class_name("ACUAGAGGUGGAAGGAGCGGGAGACAUGAGGAUCACCCAUGUGAAGUUUCGAGAGGAUCAUCCCAGGUAGGUCGCCAUGUCGAAA [vvbvmullin]")
"1 (yes)"
>>> class_name("ACAUGAGGAUCACCCAUGUCAAGGCACGAUACCAGCUGAUCCCGUGGCCCUUGGCAGCGUCACGUUUGGUCCCGCGGAUGACACG [zczmullin]")
"1 (yes)"
>>> class_name("GCAUCAUGAACGGCCGCCACUAAGGAAUGAGCGGCUCUUGCGAUACAUGAGGAUCACCCAUGUCUUAGGACCGGGUUCAUUGUCA [theeternabot_sameState_MS2_Trp_B_49]")
"1 (yes)"
>>> class_name("UGUAUGUGAUUUGAUACCAGACCAGCUGGUGGUGCAUGAGGAUCACCCAUGCAGGUUUGGGUCCCUUGGCAGCAAAUCGCAUACU [SS Theo B #24 Ms17]")
"1 (yes)"
>>> class_name("GUGUUAUGGUCGGCCGCCACUCUGACAUGAGGAUCACCCAUGUUGUACAUGAGGAUCACCCAUGUGAGGACCGGGACACGUGCGA [Exclusion Tryptophan B GF10]")
"1 (yes)"
>>> class_name("UGUAACAUGAGGAUCACCCAUGUGCACGAUACCAGCUUCGAAAGAGGCCCUUGGCAGCGUAUGCGUAAGCUGUAUAAUAUAUAUC [#28 SameState-TheophyllineA]")
"0 (no)"
>>> class_name("ACAUGAGGAUCACCCAUGUAAAUAACGGAAGGAGCGUGCAAAAGCACAGGUAGGUCGCCGAUAUAAAUAUUGGGUAAUAUAUUAU [ExyArgA#1]")
"1 (yes)"
>>> class_name("UUUUUCAUAGGUUAUAGUUUAGAAACUGAAGGAGCGUGGUAAUACACAGGUAGGUCGCAGAUUUUACAUGAGGAUCACCCAUGUU [JR_ExcArginiA_Sub014]")
"1 (yes)"
>>> class_name("UAAAAUAAUAAUGAUACCAGCCCUCCCUCCCGGGACAUGAGGAUCACCCAUGUCUCUCCCGGCCCUUGGCAGCAUAAAUAAUAAU [Same Stare - Theophylline B]")
"0 (no)"
>>> class_name("GCUGUACCAUGAAGGAGCGUCACGGAGUGCGAAUACACAUGAGGAUCACCCAUGUUUUUAUGGCAGGUAGGUCGCAUGGUACAGC [#02 Same State - Arginine B]")
"1 (yes)"
>>> class_name("GGUCGCCAACAUGGGUCGGUGAAAUGGGAAGGAGCGAGCGAGAGCUCAGGUAGGUCGCCCAAACAUGAGGAUCACCCAUGUAAUA [SSArg-A #28 UUU adds V2]")
"1 (yes)"
>>> class_name("UACAUGAGGAUCACCCAUGUCUGAACUGAAGGAGCGCUAAAUAAGGCAGGUAGGUCGCGGAAUUUUGUGUGCAUAUGCAUAUGGG [9.L]")
"1 (yes)"
>>> class_name("GCUGCCAUACGAAGGAGCGCUGUUGCAAUGAGGCGAACAUGAGGAUCACCCAUGUGGCAGCAGCAGGUAGGUCGCGUAUGGCAGC [EAB #12]")
"1 (yes)"
>>> class_name("CUUAUAUAUAGAAGGAGCGACAUGAGGAUCACCCAUGUCUACCACGUCGAAAGACGCUCAUGUCAGGUAGGUCGCUAUAUAUAAG [Astros-Eli-mod3]")
"1 (yes)"
>>> class_name("GAUAGUUGAAGGGAUACCAGCCUGGACAUGAGGAUCACCCAUGUAGCGUGUUUGAAACUGGGCCCUUGGCAGCCCAUAUUGUGUA [Same State - Theophylline B / A]")
"0 (no)"
>>> class_name("AUAUUAAUCGGAAGGAGCGGUACAUGAGGAUCACCCAUGUGCGAAGCCAGCAGAUCCCGUUACCAGGUAGGUCGCCGAGUUAUGA [Begebe]")
"1 (yes)"
>>> class_name("GCAUGUUGGUGGUUUCUGCGAAGGCGGAAUCGAGGACCGGUACGGCCGCCACUCGGCGACAUGAGGAUCACCCAUGUGGUUAGGA [Exclusion - Tryptophan A (Freestyle 9)]")
"1 (yes)"
>>> class_name("AGCGGAACGGAAGGGUCCCAAAAUUGUGAUACCAGCCUUGAAUCCGGCCCUUGGCAGCACAUGAGGAUCACCCAUGUACUGCGAU [Laanor]")
"0 (no)"
>>> class_name("AUGUGCAAUACGGAUACCAGCCCGUGUAGAUACAUGAGGAUCACCCAUGUCAAUGUAAAUGGCCCUUGGCAGCCGUUUGGGAGGC [theeternabot_sameState_MS2_Theo_B_35]")
"0 (no)"
>>> class_name("CGGGACAUGAGGAUCACCCAUGUACGAUCCCGAGGACCGGUACGGCCGCCACUCGCUAGCGUUGAGUCGCGACUUUCAUAACUAA [theeternabot_sameState_MS2_Trp_A_27]")
"1 (yes)"
